- measurement target: T1, human MSLN-FL-his protein (human, UniProt Q13421 296-580)
- T1 construct: made in HEK293E cells, purified on nickel column; also called hMSLN-FL-his; human MSLN full-length protein; not shown: His tag
- T1 sequence (Q13421 other isoform, or with tags, fused parts or gaps): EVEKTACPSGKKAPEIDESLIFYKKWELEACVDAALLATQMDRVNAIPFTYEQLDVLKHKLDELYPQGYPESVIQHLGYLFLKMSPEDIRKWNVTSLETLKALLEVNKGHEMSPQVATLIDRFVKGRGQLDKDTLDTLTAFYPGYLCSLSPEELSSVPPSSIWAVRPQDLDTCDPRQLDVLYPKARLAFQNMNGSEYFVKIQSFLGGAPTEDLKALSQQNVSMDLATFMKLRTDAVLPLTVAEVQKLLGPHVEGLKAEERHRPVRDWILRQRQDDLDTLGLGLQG
- experimental protocol: competitive ELISA; row F3-63.5; further: test concentration or dose not given here
recorded endpoint: competition rate (%)
Report the figure in % without appending any unit label.

binder	competition rate [%]
S009-F6-62.5 (antibody, human IgG1, kappa, V domains shown, human-murine chimeric antibody, human IgG1/kappa constant regions) VH: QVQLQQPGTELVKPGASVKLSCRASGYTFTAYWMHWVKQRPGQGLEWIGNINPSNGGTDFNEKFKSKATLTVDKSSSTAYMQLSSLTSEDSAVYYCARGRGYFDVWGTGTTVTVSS VL: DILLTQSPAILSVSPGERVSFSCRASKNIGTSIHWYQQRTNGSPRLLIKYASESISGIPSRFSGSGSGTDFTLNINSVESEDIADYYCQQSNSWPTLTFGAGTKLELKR	-17
S009-F4-94.15 (antibody, human IgG1, kappa, V domains shown, human-murine chimeric antibody, human IgG1/kappa constant regions) VH: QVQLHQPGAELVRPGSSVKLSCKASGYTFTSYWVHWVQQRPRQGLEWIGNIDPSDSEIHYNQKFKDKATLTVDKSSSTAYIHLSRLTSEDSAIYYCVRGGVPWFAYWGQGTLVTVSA VL: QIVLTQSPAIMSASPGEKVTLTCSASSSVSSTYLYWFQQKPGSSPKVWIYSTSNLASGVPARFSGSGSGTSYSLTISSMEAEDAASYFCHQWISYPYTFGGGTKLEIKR	-10
S009-F6-76.1 (antibody, human IgG1, kappa, V domains shown, human-murine chimeric antibody, human IgG1/kappa constant regions) VH: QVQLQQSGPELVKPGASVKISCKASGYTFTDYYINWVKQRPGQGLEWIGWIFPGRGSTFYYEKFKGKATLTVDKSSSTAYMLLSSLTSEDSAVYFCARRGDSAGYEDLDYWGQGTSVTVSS VL: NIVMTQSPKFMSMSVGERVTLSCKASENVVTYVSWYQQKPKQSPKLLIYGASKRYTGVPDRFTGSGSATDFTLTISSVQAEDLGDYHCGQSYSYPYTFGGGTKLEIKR	2

Now examine the next entry.
Please list competition rate recorded for the binder S009-F2-56.12 (antibody, human IgG1, kappa, V domains shown, human-murine chimeric antibody, human IgG1/kappa constant regions) VH: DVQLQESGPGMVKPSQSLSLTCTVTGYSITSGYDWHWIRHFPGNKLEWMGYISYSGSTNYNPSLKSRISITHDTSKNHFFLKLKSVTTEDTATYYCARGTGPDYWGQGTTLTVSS VL: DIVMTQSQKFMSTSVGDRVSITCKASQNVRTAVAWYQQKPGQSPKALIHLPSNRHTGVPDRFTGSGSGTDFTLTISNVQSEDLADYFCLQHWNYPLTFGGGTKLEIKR -24
